SYSTEM: T1, soluble KIR3DL1*002-Fc (human, UniProt P43629 22-338)
T1 construct: also called KIR3DL1 allele 002; Allele 002; not shown: Fc domain
T1 sequence (P43629 other isoform, or with tags, fused parts or gaps): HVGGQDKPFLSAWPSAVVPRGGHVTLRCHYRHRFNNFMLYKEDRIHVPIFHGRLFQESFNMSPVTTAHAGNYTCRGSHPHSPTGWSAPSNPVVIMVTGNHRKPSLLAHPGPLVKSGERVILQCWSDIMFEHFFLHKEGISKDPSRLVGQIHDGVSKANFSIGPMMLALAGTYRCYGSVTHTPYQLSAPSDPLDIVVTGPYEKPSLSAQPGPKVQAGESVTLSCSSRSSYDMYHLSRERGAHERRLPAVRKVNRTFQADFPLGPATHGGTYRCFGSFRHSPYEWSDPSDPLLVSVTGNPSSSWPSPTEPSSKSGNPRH
METHOD: SPR (BIACORE T-100)
METRIC: pKd
// returns pKd (minus log10 of molar concentration), number only

Below, each entry is followed by its recorded pKd result.
# BINDER, pKd
records = [
    ("ET160-74 (antibody, human IgG1, V domains shown, Tested as human IgG1 (hIgG1), lambda light chain) VH: QVQLVQSGAEVKKPGSSVKVSCKASGGTFSSYAISWVRQAPGQGLEWMGWMNPNSGNTGYAQKFQGRVTMTRNTSISTAYMELSSLRSEDTAVYYCARYSFHLDGWGQGTLVTVSS VL: QSVLTQPPSVSAAPGQKVTISCSGSSSNVGNNYVSWYQQVPGTAPKLLIYDNNRRPSGIPDRFSGSKSGTSATLGITGLQTGDEADYYCGTWDNSLRVELFGGGTKVTVLG", 6.96),
    ("ET160-72 (antibody, human IgG1, V domains shown, Tested as human IgG1 (hIgG1), lambda light chain) VH: QVQLVQSGGGVVRSGGSLRLTCAASGFTFGDYGMSWVRQAPGKGLEWVSGINWNGGGTGYADSVKGRFTISRDNAKDSLYLQMNSLRAEDTALYYCARVWGCGSTTCYEGADDAFDIWGQGTMVTVSS VL: LPVLTQPPSISGAPRQRVTISCSGARSNIGNNAVNWYQQVPGEAPKLLIFYDDQQPSGISGRFSGSKSGTSASLAISGLQSEDEADYYCAAWDDSLNGWVFGGGTKLTVLG", 6.50),
]

Moving on to the next binder.
# input For ET160-61 (antibody, human IgG1, V domains shown, Tested as human IgG1 (hIgG1), lambda light chain) VH: QVQLVESGGGLVQPGRSLRLSCAASGFTFDDYAMHWVRQAPGKGLEWVSGISWNSGSIGYADSVKGRFTISRDNAKNSLYLQMNSLRAEDTAVYYCASSLRYFEWPIDYWGQGTLVTVSS VL: NFMLTQPLSVSESPGKTVTISCTANGGSLASKYVQWFQQRPGSSPTTVIYDDNLRPSGVPDRFSGSIDTSSNSAALTISGLKTEDEADYYCQSYDNSSVVFGGGTKLTVLG , what is its reported pKd?
# output 7.56
